The measurements presented in this section are drawn from ChEMBL document CHEMBL5143658.

As shown below, each of these compounds has a reported IC50 at 48 h value.
test: Cytotoxicity against mouse RAW264.7 cells assessed as inhibition of cell growth incubated for 48 hrs by MTT assay; format: toxicity, cell-based
Kindly provide the numeric value in µM only, without the unit symbol.

Examples with their reported IC50 at 48 h follow.
| CHEMICAL STRUCTURE | MEASURED VALUE |
| --- | --- |
| Cc1ccc(C(F)(F)F)c(COc2cc(NC(=O)c3cccc(C(=N)N)c3)ccc2N(C)S(=O)(=O)C(F)(F)F)c1 | 0.86 |
| CCCCCCOc1cc(NC(=O)c2ccc(OC)cc2)ccc1NC(=N)N | 259 |
| COc1ccc(C(=O)Nc2ccc(NC(=N)N)c(OCc3cccc(C(F)(F)F)c3)c2)cc1 | 102 |

Now take the following compound into account.
Supply IC50 at 48 h value. Item: COc1ccc(OC)c(COc2cc(NC(=O)c3cc(C(F)(F)F)cc(C(F)(F)F)c3)ccc2NC(=N)N)c1 123
